Hello, the source for this data is PubChem BioAssay (NCI), in case you need it.

Test system: HCC-2998 colon
Classes used: active, inactive

1. Cn1cc(C2=C(c3cn(C)c4c(N)cccc34)C(=O)NC2=O)c2ccccc21; inactive
2. COc1ccc(OC(=O)O[C@H]2[C@H](O[C@H]3[C@@H](O)COC(O[C@H]4C[C@H]5[C@@H]6CC=C7C[C@@H](O)CC[C@]7(C)[C@H]6CC[C@]5(C)[C@H]4[C@H](C)C(=O)CCC(C)C)[C@@H]3OC(C)=O)OC[C@@H](O)[C@@H]2O)cc1 (stereo not given in full); inactive
3. COc1cc([C@@H]2c3cc4c(cc3C(O[C@@H]3O[C@@H]5CO[C@@H](c6cccs6)OC5[C@H](O)[C@H]3O)C3COC(=O)[C@@H]32)OCO4)cc(OC)c1O (stereo not given in full); active
4. COc1cccc(NCc2nnc(Nc3ccc(Cl)cc3)c3ccccc23)c1; inactive
5. COc1ccc(/C(=N/Nc2ccc([N+](=O)[O-])cc2)Sc2cc(Cl)c(C)cc2S(N)(=O)=O)cc1; inactive

---

Tested on: PC-3 prostate
Assay Protocol: NCI tumour cell line growth inhibition, 48 h
Entries and their measured TGI follow.
Endpoint Name: TGI (µM)

1. COc1cccc(NCc2nnc(Nc3ccc(Cl)cc3)c3ccccc23)c1; 9.33
2. COc1ccc(/C(=N/Nc2ccc([N+](=O)[O-])cc2)Sc2cc(Cl)c(C)cc2S(N)(=O)=O)cc1; 17.6
3. O=C(CCCSc1nc(-c2ccc(Cl)cc2)cc(-c2ccc(Cl)cc2)n1)NO; 16.1
4. C=C1C(=O)O[C@H]2[C@H]1CC/C(COC(=O)/C=C\C(=O)NCc1ccc(Cn3c(=O)sn(-c4ccc(C#N)cc4)c3=O)cc1)=C\CC[C@@]1(C)O[C@@H]21; 1.44

---

Test system: BT-549 breast
Assay Protocol: NCI tumour cell line growth inhibition, 48 h
Endpoint Name: TGI

1. C[C@]12CC[C@@H]3c4ccc(O)cc4CC[C@H]3[C@@H]1CC[C@@H]2NS(=O)(=O)c1ccc(C(F)(F)F)cc1; 3.2 µM
2. Cn1c(=O)c2c(nc(NCCCCl)n2CC(=O)NCCCCl)n(C)c1=O; > 100 µM
3. CC(C(=O)N1c2ccccc2Sc2ccccc21)N1c2ccccc2Sc2ccccc21 (stereo unspecified); > 100 µM
4. CCOC(=O)N/N=C(/N)Cc1ccccc1; > 100 µM
5. Cn1cc(C2=C(c3cn(CCCN=C(N)N)c4ccccc34)C(=O)NC2=O)c2ccccc21; > 25 µM
6. O=C(O)c1cc(N=Nc2ccc([As](=O)(O)O)cc2)ccc1O; > 100 µM
7. CCOC(=O)c1c(C)n(Cc2ccc(OC)cc2)c2c1cc(O)c1[nH]c3c(c12)CCCC3; 27.8 µM
8. O=C(O)C(Sc1ccc(Cl)cc1)Sc1ccc(Cl)cc1; > 100 µM
9. CN(C)C(=S)SN(C)C(=O)Nc1ccccc1; > 100 µM
10. CC/C(=N/O)c1ccc(Br)s1; > 100 µM
11. CN1C(NC(=O)c2ccc(Cl)nc2)=NS(=O)(=O)c2cc(Cl)ccc21; > 100 µM

---

Test system: 786-0 renal
Assay Protocol: NCI tumour cell line growth inhibition, 48 h
Endpoint Name: TGI

1. COc1ccc(-n2c(SCc3cc(OC)c(OC)c(OC)c3)nc3ccc(C)cc3c2=O)cc1; > 100 µM
2. O=C(Nc1ccc2nc(-c3ccccc3)cn2c1)Oc1ccccc1; > 100 µM
3. Cc1ccccc1Nc1cn(COCc2ccccc2)c(=O)[nH]c1=O; > 100 µM
4. N#CC1=C(N2CCCC2)NC(=O)CC1=O; > 100 µM
5. CCN(CC)Cc1cc(Nc2ccnc3ccc4c(nnn4C)c23)ccc1O; 20.8 µM
6. CC(=O)O[C@@H]1C=C(C)[C@H](CBr)O[C@@]2(C)CC[C@H](Br)C(C)(C)[C@H]12; > 100 µM
7. Cc1ccc(NC(=O)C2C(=O)N(c3ccc(C)c(C)c3)C(=O)/C2=N/O)cc1C (centres undefined); > 100 µM
8. O=C1CCC(c2ccccc2)C(O)(C(=O)O)C1 (centres undefined); > 100 µM
9. Cc1oc2nc(N(C)C)nc(Cl)c2c1C; > 100 µM
10. COc1ccc2cc(C(=O)/C=C/c3cccc(OC)c3OC)ccc2c1; 16.6 µM
11. CCc1cccc(C)c1NC(C)=O; > 100 µM
12. CCCCn1c(-c2ccc(C(=O)O/N=C(\N)c3ccc(OC)cc3)cc2)nc(-c2ccccc2)c1-c1ccccc1; 1.91 µM
13. CCN(CC)C(=O)C/C(C)=N/NC(=O)c1ccncc1; > 100 µM
14. Cc1cc(C2CCCCC2)n(O)c(=O)c1; > 100 µM
